Molecular target: T1, human ASGR-1 (human, UniProt P07306 1-291)
T1 construct: Stably expressed on CHO-S cells (CHO-S:huASGR-1); The method text says human or mouse ASGR-1 cells were used; also called huASGR-1; hASGR-1
T1 sequence: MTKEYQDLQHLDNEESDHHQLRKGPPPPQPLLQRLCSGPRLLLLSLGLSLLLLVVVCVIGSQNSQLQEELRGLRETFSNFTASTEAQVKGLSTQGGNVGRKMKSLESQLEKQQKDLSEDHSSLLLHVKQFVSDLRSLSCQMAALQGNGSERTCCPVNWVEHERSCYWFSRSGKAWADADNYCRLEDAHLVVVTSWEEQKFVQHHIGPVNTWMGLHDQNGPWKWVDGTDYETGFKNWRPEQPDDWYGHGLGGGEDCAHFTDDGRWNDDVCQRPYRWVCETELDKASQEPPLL
Assay: FACS ligand blocking on CHO-S ASGR-1 cells; labelled ligand biotin-GalNAc-PAA (synthetic sugar)
measured.metric: % Inhibition (%)
The response must be a number in % with no trailing unit.

[[record]]
binder = "4H6 (antibody, V domains shown, tested as antibody purified from hybridoma supernatant or made recombinantly) VH: QVQLVQSGAEVKKPGASVKVSCKASGYTFTDYYLHWVRQAPGQGLEWMGWIHPNSGGTNYAQKFQGRVTMTRDTSISTAYMGLSSLRSDDTAVYYCARDGTSSFDYWGQGTLVTVSS VL: DIQMTQSPSSVSASVGDRVTITCRASQGISRWLAWYQQKPGKAPKLLIYGASSLQSGVPSRFSGSGSGTDFTLTISSLQPEDFAIYYCQQANSFPFTFGPGTKVDIK"
measured_metric = "% Inhibition"
unit_symbol = "%"
data_value = 20


Q: Any idea what its % Inhibition is? The binder is 48B12 (antibody, V domains shown) VH: EVQLLESGGGLVQPGGSLRLSCAASGFTFSSYAMNWVRQAPGKGLEWVSAISGRGGNTFYADSVKGRFTISRDNSKNTLYLQMNSLRAEDTAVYYCAKRETYNWNYEGFDYWGQGTLVTVSS VL: SYELTQPPSVSVSPGQTARITCSGDALPKKYAYWYQQKSGQAPVLVIYEDSKRPSGIPERFSGSSSGTMATLTISGAQVEDEADYYCNSTDSSGNHVVFGGGTKLTVL
Ans: 94

Q: Any idea what its % Inhibition is? The binder is 4B1 (antibody, V domains shown) VH: QVQLQESGPGLVKPSETLSLTCSVSGDSISSYSWSWIRQPAGKGLEWIGRIYTSGSTNYIPSLKSRITMSVDTSKKQFSLKLSSVTAADTAVYYCARDLKSSGCLFFDYWGQGTLVTVSS VL: DIQMTQSPSSLSASVGDRVTITCRASHTIRTYLNWYQQKPGKAPKLLIYAASSLQSGVPSRINGSGSGTDFTLTITNLQPEDFATYYCQQSYNISFTFGPGTKVDIK
Ans: 36

Q: Any idea what its % Inhibition is? The binder is 194A4 (antibody, V domains shown) VH: QVQLVQSGTEVKKPGASLKVSCKASGYTFTVYYLNWVRQAPGQGLEWMGWINPNSGGTNYAQKFQGRVTMTRDTSISTAYMELSRLRSDDTAVYYCARGYDILTGWGQGTLVTVSS VL: EIVLTQSPGTLSLSPGERATLSCRASRGVSNIYLAWYQQKPGQAPRLLIYGASNRATGIPDRFSGSGSGTDFTLTISRLEPEDFAVYYCQHNDYSMFTFGPGTKVDIK
Ans: 60

Q: Any idea what its % Inhibition is? The binder is 191G10 (antibody, V domains shown) VH: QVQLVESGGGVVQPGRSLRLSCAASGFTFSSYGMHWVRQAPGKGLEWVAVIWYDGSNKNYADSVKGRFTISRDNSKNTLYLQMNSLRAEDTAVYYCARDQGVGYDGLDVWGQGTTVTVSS VL: DIQMTQSPSSLSASVGDRVTITCRTSQGIGKYLAWFQQKPGKAPKSLLYKVSSLQSGVPSKFSGSGSGTDFTLTISSLQPEDFATYYCQQYMTYPLTFGGGTKVEIK
Ans: 99

Entry source: patent US20190248902A1
